- method_description: In vivo pharmacokinetics after a single dose, dog
- details: male, plasma; Beagle dog, 3 mg/kg PO
measurement_type: Cmax
The reply must contain the numeric value and, after it, the unit.

Need Cmax, item CNC(=O)N1CCn2c(C3CCOCC3)nc(-c3cccc4nc(-c5cnc(C)s5)c(C(F)F)cc34)c2C1 [Compound 1]
1870 nM

====

- method_description: In vivo pharmacokinetics after a single dose, dog
- details: male, plasma; Beagle dog, 3 mg/kg PO
measurement_type: bioavailability (%)
Reply numerically in %, unit not repeated.

Need bioavailability, item CNC(=O)N1CCn2c(C3CCOCC3)nc(-c3cccc4nc(-c5cnc(C)s5)c(C(F)F)cc34)c2C1 [Compound 1]
78.9

Origin of the recorded values: patent US12540139B2
